Examples of compounds with documented clearance follow.
Assay: Mouse pharmacokinetics, i.v. bolus
Conditions: in vivo, iv, male ICR (CD-1) mice, single 1 mg/kg slow i.v. bolus, plasma, LC-MS/MS, noncompartmental from mean profile, n = 3/time point, read-out: CL (clearance)
Starred links: 1 amine or outer side, 2 acyl side, 3 side chain; linkers in the order of their positions; H or OH if unused. Positions of bridges follow the written chain, without caps; N, C: chain ends. Non-standard residues stand in square brackets, D forms with d. Residues, ends and D or L forms follow the SMILES beside them. *: point of attachment. Orn(4R-OH,5R-OCH2CH2NMe3+) = C[N+](C)(C)CCO[C@@H](N[*:3])[C@H](O)C[C@H](N[*:1])C(=O)[*:2]; pTerphenylCO(4''-OnC5H11) = CCCCCOc1ccc(-c2ccc(-c3ccc(C(=O)*)cc3)cc2)cc1; Orn(4R-OH,5R-OH) = O=C([C@H](C[C@@H](O)[C@@H](O)N[*:3])N[*:1])[*:2]; hTyr(3S-OH,4S-OH) = N[C@H](C(=O)O)[C@H](O)[C@@H](O)c1ccc(O)cc1; Pro(3S-OH,4S-Me) = C[C@H]1CN[C@H](C(=O)O)[C@H]1O; Hyp = O=C(O)[C@@H]1C[C@@H](O)CN1
Expressed in mL/min/kg, but write only the number.

1) CCCCCOc1ccc(-c2ccc(-c3ccc(C(=O)N[C@H]4C[C@@H](O)[C@@H](O)NC(=O)[C@@H]5[C@@H](O)[C@@H](C)CN5C(=O)[C@H]([C@@H](C)O)NC(=O)[C@H]([C@H](O)[C@@H](O)c5ccc(O)cc5)NC(=O)[C@@H]5C[C@@H](O)CN5C(=O)[C@H]([C@@H](C)O)NC4=O)cc3)cc2)cc1 [anidulafungin] ({pTerphenylCO(4''-OnC5H11)}-[Orn(4R-OH,5R-OH)]T[Hyp][hTyr(3S-OH,4S-OH)]T[Pro(3S-OH,4S-Me)]; lactam 1-C)
0.21

Okay, now this compound:
### Prompt Return reported clearance. Input compound: CCCCCOc1ccc(-c2ccc(-c3ccc(C(=O)N[C@H]4C[C@@H](O)[C@@H](OCC[N+](C)(C)C)NC(=O)[C@@H]5[C@@H](O)[C@@H](C)CN5C(=O)[C@H]([C@@H](C)O)NC(=O)[C@H]([C@H](O)[C@@H](O)c5ccc(O)cc5)NC(=O)[C@@H]5C[C@@H](O)CN5C(=O)[C@H]([C@@H](C)O)NC4=O)cc3)cc2)cc1 [CD101] ({pTerphenylCO(4''-OnC5H11)}-[Orn(4R-OH,5R-OCH2CH2NMe3+)]T[Hyp][hTyr(3S-OH,4S-OH)]T[Pro(3S-OH,4S-Me)]; lactam 1-C)
### Response 0.102
